# Tested on: SEM cells
# Experiment: cell viability relative to DMSO control; higher = less cytotoxic
# Test parameters: RPMI 5 mM glucose + 10% FBS; 48 h; 15.4 µM
Recorded metric: cell viability (%)
Answer format: numeric, % implied, no suffix.

Consider the following illustrative entries.
1) CC(=O)OC[C@H]1O[C@@H]([S-])[C@H](OC(C)=O)[C@@H](OC(C)=O)[C@@H]1OC(C)=O.CCP(CC)CC.[Au+] : 6.28
2) CCn1c(-c2nonc2N)nc2c(C#CC(C)(C)O)ncc(OC[C@H]3CCCNC3)c21 : 60
3) CC[C@@H]1[C@@H](C)O[C@@](O)([C@@H](C)[C@H](O)[C@H](C)[C@H]2OC(=O)/C=C/C=C/[C@H](C)[C@@H]([C@@H](C)[C@@H](O)[C@H](C)[C@@]3(O)C[C@@H](O[C@H]4C[C@H](O)[C@H](O)[C@H](C)O4)[C@H](CC)[C@@H](C)O3)OC(=O)/C=C/C=C/[C@@H]2C)C[C@H]1O[C@H]1C[C@H](O)[C@H](O)[C@H](C)O1 : 11.6

What measured cell viability goes with Cc1c(-c2cccc3c(CCCOc4cccc5ccccc45)c(C(=O)O)n(Cc4cccnc4)c23)c(COc2ccc(N3CCN([S+](=O)([O-])N(C)C)CC3)cc2)nn1C ?
95.5

Param item = CN1C(=O)C(=C\C2=C1N=C(NC3=CC=CC(=C3)C(O)=O)N=C2)/C4=C(Cl)C=CC=C4Cl ; retrieve measured cell viability.
65.6

Which cell viability reading was recorded for the compound NC(=O)[C@H]1CCS[C@@H]2C[C@]3(CCCN3C(=O)Cc3ccc(NC(=O)COc4ccc(Cl)cc4Cl)cc3)C(=O)N12 ?
19.6

* * *

# System: SEM cells
# Experiment: cell viability relative to DMSO control; higher = less cytotoxic
# Test parameters: RPMI 5 mM glucose + 10% dialyzed FBS; 48 h; 1.71 µM
Recorded metric: cell viability (%)
The reply should be a number in %, with the unit left off.

1. NC[C@@H]1O[C@H](O[C@H]2[C@@H](O)[C@H](O[C@@H]3[C@@H](O)[C@H](N)C[C@H](N)[C@H]3O[C@H]3O[C@H](CN)[C@@H](O)[C@H](O)[C@H]3N)O[C@@H]2CO)[C@H](N)[C@@H](O)[C@@H]1O.O=S(=O)(O)O.O=S(=O)(O)O.O=S(=O)(O)O : 105

Looking for the measured cell viability of CC\12CCC(=O)\C=C1CCC3C2CCC4(C)C3CCC4(O)C#C (configuration not stated) , can you help?
98.5

Which cell viability value belongs to Cc1c(-c2cccc3c(CCCOc4cccc5ccccc45)c(C(=O)O)n(Cc4cccnc4)c23)c(COc2ccc(N3CCN([S+](=O)([O-])N(C)C)CC3)cc2)nn1C ?
96.5

Find the recorded cell viability belonging to Clc1cccc(-n2nnnc2NCc2ccccc2Oc2ccccn2)c1Cl and report it.
129

So what does the record say about cell viability for CCOC(=O)[C@@]1(CCCCCCOc2ccc(Cl)cc2)CO1 ?
102

Fill blank: measured cell viability of the compound CN(C)c1ccc2nc3ccc(N(C)C)cc3[s+]c2c1 is ____.
91.1

# query: cell viability of entry CC(=O)N[C@@H]1[C@@H](NC(N)=N)\C=C(/O[C@H]1[C@H](O)[C@H](O)CO)C(O)=O
120

* * *

# Tested on: P12-Ichikawa
# Experiment: cell viability relative to DMSO control; higher = less cytotoxic
# Test parameters: RPMI 5 mM glucose + 10% FBS; 48 h; 0.000781 µM
Documented cell viability across a set of compounds
API: value field is a number in %; no unit string.

Some compounds with known cell viability results, for comparison:
1. O=C(CS(=O)Cc1ccco1)NC/C=C\COc1cc(CN2CCCCC2)ccn1 (stereo not given) : 87.7
2. COc1ccc(C(=O)c2c(C)n(CCN3CCOCC3)c3ccccc23)cc1 : 89.3
3. CCN(CC)CCOc1ccc(Cc2ccccc2)cc1 : 101

Look at this compound and give its reported cell viability. OC[C@H]1O[C@H](C[C@@H]1O)N2\C=C(F)/C(=O)NC2=O
115

Could you tell me which cell viability is on file for CCOC(=O)[C@@]1(CCCCCCOc2ccc(Cl)cc2)CO1 ?
108

* * *

# Tested on: P12-Ichikawa
# Experiment: cell viability relative to DMSO control; higher = less cytotoxic
# Test parameters: RPMI 5 mM glucose + 10% FBS; 48 h; 0.0211 µM
Recorded metric: cell viability (%)
Give a bare numeral; the unit % is implied.

Here are 4 compounds together with their reported answers.
1) CC(C)(S)[C@@H](N)C(=O)O : 121
2) CCOc1cc2ncc(C#N)c(Nc3ccc(OCc4ccccn4)c(Cl)c3)c2cc1NC(=O)/C=C/CN(C)C : 118
3) CC(C)(F)C[C@H](N[C@@H](c1ccc(-c2ccc([S+](C)(=O)[O-])cc2)cc1)C(F)(F)F)C(=O)NC1(C#N)CC1 : 121
4) O=C(Nc1nnc(-c2ccco2)o1)c1cc(-c2ccccc2)nc2ccccc12 : 110

Here is the next item to consider.
Please give the measured cell viability for this compound: CCN(CCO)CCCOc1ccc2c(Nc3cc(CC(=O)Nc4cccc(F)c4)[nH]n3)ncnc2c1
117

* * *

cell viability: recorded values
# Tested on: SEM cells
# Experiment: cell viability relative to DMSO control; higher = less cytotoxic
# Test parameters: RPMI 5 mM glucose + 10% FBS; 48 h; 1.71 µM
The reply should be a number in %, with the unit left off.

1. O=C(Nc1c[nH]nc1-c1nc2cc(CN3CCOCC3)ccc2[nH]1)NC1CC1 : 10.4

Consider the compound CC(C)=CCC/C(C)=C/CC/C(C)=C/CSc1ccccc1C(=O)O and give its measured cell viability.
71.8

Requested field: cell viability. Item: CC[S+](=O)([O-])Nc1ccc2c(c1)/C(=C(/Nc1ccc(CN3CCCCC3)cc1)c1ccccc1)C(=O)N2
13.8

GET /values?readout=cell viability&item= CC(NC(C)(C)C)C(=O)c1cccc(Cl)c1 (stereo not given)
73.2

Reported cell viability for C[C@H]1C[C@H]2[C@@H]3CC[C@](O)(C(=O)CO)[C@@]3(C)C[C@H](O)[C@@H]2[C@@]\4(C)/C=C\C(=O)\C=C14 : what is it?
39.2

* * *

# Tested on: SEM cells
# Experiment: cell viability relative to DMSO control; higher = less cytotoxic
# Test parameters: RPMI 5 mM glucose + 10% dialyzed FBS; 48 h; 0.569 µM
Catalogue of molecules with associated cell viability
Please reply with the bare figure in % and do not write the unit itself.

1) CC(C)(S)[C@@H](N)C(=O)O : 104
2) COc1ccc(C(=O)c2c(C)n(CCN3CCOCC3)c3ccccc23)cc1 : 96.1
3) Clc1cccc(-n2nnnc2NCc2ccccc2Oc2ccccn2)c1Cl : 149

I am curious: what cell viability value has been reported for CC(C)N(C[C@H]1O[C@@H](n2cnc3c(N)ncnc32)[C@H](O)[C@@H]1O)[C@H]1C[C@@H](CCc2nc3cc(C(C)(C)C)ccc3[nH]2)C1 ?
113

# get_value(readout='cell viability', item= Cc1cn([C@H]2C=C[C@@H](CO)O2)c(=O)[nH]c1=O )
107

* * *

Each entry below lists one item and its recorded cell viability value.
# Test system: NOMO1
# Experiment: cell viability relative to DMSO control; higher = less cytotoxic
# Test parameters: RPMI 5 mM glucose + 10% dialyzed FBS; 48 h; 0.0211 µM

These recorded examples may help you get a feel for the data.
1. OC1=CC=C(C=C1)\C2=C\OC3=C(C(=CC(=C3)O)O)C2=O : 110%
2. O=C1CCC[C@@H]2[C@H]3CCCN4CCC[C@@H](CN12)[C@@H]34 : 82.9%
3. COc1ccc(C(CN(C)C)C2(O)CCCCC2)cc1 (configuration not stated) : 117%

Record request: cell viability value, item CCOc1cc2ncc(C#N)c(Nc3ccc(OCc4ccccn4)c(Cl)c3)c2cc1NC(=O)/C=C/CN(C)C
109%

Request the reported cell viability associated with COc1cc([C@@H](CC(=O)O)c2ccc(C)c(CN3C[C@@H](C)Oc4ccccc4[S+]3(=O)[O-])c2)cc2nnn(C)c12
104%

What measured cell viability goes with COc1cc2ncn(-c3cc(OCc4ccccc4[S+](C)(=O)[O-])c(C#N)s3)c2cc1OC ?
100%

Give the measured cell viability of CC[S+](=O)([O-])Nc1ccc2c(c1)/C(=C(/Nc1ccc(CN3CCCCC3)cc1)c1ccccc1)C(=O)N2 .
101%

// lookup cell viability for CC(C)(F)C[C@H](N[C@@H](c1ccc(-c2ccc([S+](C)(=O)[O-])cc2)cc1)C(F)(F)F)C(=O)NC1(C#N)CC1
121%

Requested read-out: cell viability. Entry: C[C@H](CCC(=O)O)[C@H]1CCC2C3C[C@H](O)[C@@H]4C[C@H](O)CC[C@]4(C)C3CC[C@@]21C (some centres not stated)
108%

Which cell viability reading was recorded for the compound O=C(CCc1ccc(O)cc1)c1c(O)cc(O)cc1O ?
103%

What measured cell viability goes with Cc1c(-c2cccc3c(CCCOc4cccc5ccccc45)c(C(=O)O)n(Cc4cccnc4)c23)c(COc2ccc(N3CCN([S+](=O)([O-])N(C)C)CC3)cc2)nn1C ?
96.1%

cell viability lookup needed for C[C@@H]1O[C@@H](O[C@H]2C[C@@H](O)[C@]3(CO)[C@H]4[C@H](O)C[C@]5(C)[C@@H](C6=CC(=O)OC6)CC[C@]5(O)[C@@H]4CC[C@]3(O)C2)[C@H](O)[C@H](O)[C@H]1O , thanks.
117%

What value of cell viability has been recorded for this entry: CN(C)c1ccc2nc3ccc(N(C)C)cc3[s+]c2c1
87.4%

Consider the compound shown here: CC(C)=CCC/C(C)=C/CC/C(C)=C/CSc1ccccc1C(=O)O What is its recorded cell viability?
106%

Give its cell viability value. Item: CCN(CCO)CCCOc1ccc2c(Nc3cc(CC(=O)Nc4cccc(F)c4)[nH]n3)ncnc2c1
111%

Which cell viability is listed for O=[N+]([O-])c1ncc[nH]1 ?
87.2%

Please report the recorded cell viability for O=C(CC12CC3CC(CC(C3)C1)C2)Nc1cccc2nc(NCCNCCO)ccc12 .
97.2%
